system: Polygonum convolvulus (POLCO); assay: Adjuvant efficacy with mesotrione, glasshouse spray test; type: in vivo; settings: mesotrione SC, mean over 30 and 60 g/ha and 3 replicates; adjuvant 0.2% v/v (none in No Adjuvant rows); % leaf area killed, 21 days after application; Tests 1-4 separate runs
readoutType: Mean % Herbicidal Activity POLCO (%)
State just the number; it will be interpreted in %.

Recorded results for 5 compounds are shown here.
compound	readoutType	unitInfo	recordedMeasurement
CCCCCCCCC=CCCCCCCCCOc1cc(OCCOCCOCCOCCOCCOCCOCCOCCOCCOCCOCCOCCOCCOCCOCCOCCOCCOCCOCCOCCOC)ncn1 [Adjuvant 11]	Mean % Herbicidal Activity POLCO	%	92
CCCCCCCCCOc1cc(OCCOCCOCCOCCOCCOCCOCCOCCOCCOCCOC)ncn1 [Adjuvant 5]	Mean % Herbicidal Activity POLCO	%	94
CCCCCCCCCCCCOc1cc(OCC(C)OCC(C)OCC(C)OC)ncn1 (centres unmarked) [Adjuvant 12]	Mean % Herbicidal Activity POLCO	%	98
CCCCCCOc1cc(OCCOCCOCCOCCOCCOCCOCCOCCOCCOCCOCCOCCOCCOCCOCCOCCOCCOCCOCCOCCOC)ncn1 [Adjuvant 3]	Mean % Herbicidal Activity POLCO	%	92
CCCCCCCCCOc1cc(OCCOCCOCCOCCOCCOCCOCCOC)ncn1 [Adjuvant 4]	Mean % Herbicidal Activity POLCO	%	93

Give its Mean % Herbicidal Activity POLCO value. Item: CCCCCCCCC=CCCCCCCCCOc1cc(OCCOCCOC)ncn1 [Adjuvant 9]
92

Give its Mean % Herbicidal Activity POLCO value. Item: CCCCCCCCC=CCCCCCCCCOc1cc(OCCOCCOCCOCCOCCOCCOCCOCCOCCOCCOC)ncn1 [Adjuvant 10]
95

Value source: patent US11439148B2
